pEC50: −log10 of the molar value.
Parameter 'readout' = pEC50; parameter 'system' = UniProt P35372.
Sequence (P35372 whole entry): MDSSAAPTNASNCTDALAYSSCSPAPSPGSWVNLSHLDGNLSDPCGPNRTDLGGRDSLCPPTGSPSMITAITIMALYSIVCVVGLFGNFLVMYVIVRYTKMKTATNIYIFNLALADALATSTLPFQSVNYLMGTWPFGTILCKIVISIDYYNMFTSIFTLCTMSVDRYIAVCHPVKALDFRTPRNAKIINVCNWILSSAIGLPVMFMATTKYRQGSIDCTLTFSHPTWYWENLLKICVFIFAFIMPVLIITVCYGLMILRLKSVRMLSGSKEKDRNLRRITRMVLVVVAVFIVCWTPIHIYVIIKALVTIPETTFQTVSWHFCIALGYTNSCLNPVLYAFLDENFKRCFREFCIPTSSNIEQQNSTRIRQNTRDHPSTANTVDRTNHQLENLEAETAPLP

Inquiry: Give pEC50 (UniProt P35372) of the following compound: CC(C)C[C@H](NC(=O)[C@H](Cc1ccccc1)NC(=O)CNC(=O)CN[C@@H]([C@@H](N)Cc1ccc(O)cc1)C(F)(F)F)C(=O)O
Reply text: < 5.00

Continuing:
Inquiry: Form: Entry = CC(C)C[C@H](NC(=O)[C@H](Cc1ccccc1)NC(=O)CNC(=O)CN[C@H]([C@@H](N)Cc1ccc(O)cc1)C(F)(F)F)C(=O)O | System = UniProt P35372 | pEC50 = ____
Reply text: < 5.00
